This collection of values is drawn from the OPERA property sets (Mansouri et al. 2018).

Please assign No whenever melting point is at or above 100 °C, and Yes whenever it is below.

Please review the entries below; each comes with its answer.
CC[N+]1(CC)CCC(OC(=O)C(O)(c2ccccc2)c2ccccc2)C1.[Br-] (centres undefined)
No
O=C(O)CN(CCO)CC(=O)O
No
CCCCCCCCCCCC(C)=O
Yes
Cc1cccc(OCC(O)CNC(C)C)c1 (centres undefined)
Yes
Cc1ccc2c(C)c(C)ccc2c1
Yes

**Q:** For this compound, is melting point lower than 100 °C? "C[C@@H](Cc1ccccc1)NCCC(c1ccccc1)c1ccccc1"
**A:** Yes

**Q:** Hi there! Is melting point for "CC(C)CCC(C)(C)C" below 100 °C, do you know?
**A:** Yes

**Q:** A record lists "COC(=O)NN" . Is its melting point below 100 °C?
**A:** Yes
